biological target: Potassium voltage-gated channel subfamily KQT member 2 (Rattus norvegicus) (UniProt O88943); experiment: rat KCNQ2 channel potentiation, selectivity assay for KCNQ1 potentiator project, KCNQ2-CHO-K1 cells (AID 493009); settings: FluxOR thallium flux fluorescence, at 10 µM, scaled: buffer 0, activator control 100;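 note: assay conditions were tuned for KCNQ1 rather than KCNQ2 modulators; signal is max minus min fluorescence divided by baseline after thallium stimulus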
Sequence (O88943 whole entry, looked up): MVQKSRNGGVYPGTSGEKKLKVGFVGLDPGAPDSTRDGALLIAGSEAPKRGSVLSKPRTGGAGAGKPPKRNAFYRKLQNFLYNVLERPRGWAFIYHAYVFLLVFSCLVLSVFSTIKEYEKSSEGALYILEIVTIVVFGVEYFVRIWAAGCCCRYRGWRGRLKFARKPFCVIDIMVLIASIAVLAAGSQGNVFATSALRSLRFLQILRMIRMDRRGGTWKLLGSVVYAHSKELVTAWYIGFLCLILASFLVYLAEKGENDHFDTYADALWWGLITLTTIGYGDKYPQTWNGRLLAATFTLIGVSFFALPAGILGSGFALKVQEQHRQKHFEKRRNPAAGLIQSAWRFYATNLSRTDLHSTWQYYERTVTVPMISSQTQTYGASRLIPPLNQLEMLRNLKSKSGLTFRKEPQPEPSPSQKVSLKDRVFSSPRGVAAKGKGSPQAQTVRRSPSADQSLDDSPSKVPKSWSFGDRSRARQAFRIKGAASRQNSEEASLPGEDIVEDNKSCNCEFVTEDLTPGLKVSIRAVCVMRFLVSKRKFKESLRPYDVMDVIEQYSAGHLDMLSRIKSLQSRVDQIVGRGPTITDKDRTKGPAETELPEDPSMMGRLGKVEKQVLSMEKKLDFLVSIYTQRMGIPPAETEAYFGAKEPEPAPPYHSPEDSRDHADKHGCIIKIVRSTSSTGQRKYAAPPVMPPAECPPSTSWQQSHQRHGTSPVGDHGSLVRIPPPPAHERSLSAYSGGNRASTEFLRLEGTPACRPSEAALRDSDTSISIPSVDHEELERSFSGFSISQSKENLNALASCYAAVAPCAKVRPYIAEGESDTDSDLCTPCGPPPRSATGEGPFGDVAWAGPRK
Active and inactive are the calls of the source.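 Rule for the calls: active = mean duplicate potentiation above the buffer control mean plus 5 SD of buffer wells; inactive = the rest.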
Entry note: the call must match one of active, inactive

Some solved cases for reference:
CCS(=O)(=O)Nc1ccc(C(=O)CC2(O)C(=O)Nc3ccccc32)cc1 (stereo unspecified) ... inactive
NS(=O)(=O)c1ccc(Sc2ccc3c(c2)CCC3)nc1 ... inactive
Cc1sc2ncnc(N3CCN(Cc4ccccc4)CC3)c2c1-c1ccccc1 ... inactive
O=C1c2ccccc2NC(c2ccc(-c3cccc(Cl)c3)o2)N1O (stereo unspecified) ... inactive
S=c1[nH]cnc2scc(-c3ccccc3)c12 ... active

Note: attention shifts to another entry.
GET /call?item= CC(C)(C)c1ccc(C(=O)NC(=S)Nc2nc3c(s2)CCCC3)cc1 returns the recorded outcome of this test.
active

###

target: Potassium voltage-gated channel subfamily KQT member 1 (Homo sapiens) (UniProt P51787); assay: KCNQ1 potassium channel potentiators, confirmation, FluxOR thallium flux, CHO cells, duplicates (AID 493007); conditions: KCNQ1 cell line, FluxOR thallium flux fluorescence, at 10 µM, % of reference activator effect, buffer zero
Sequence (P51787 whole entry, looked up): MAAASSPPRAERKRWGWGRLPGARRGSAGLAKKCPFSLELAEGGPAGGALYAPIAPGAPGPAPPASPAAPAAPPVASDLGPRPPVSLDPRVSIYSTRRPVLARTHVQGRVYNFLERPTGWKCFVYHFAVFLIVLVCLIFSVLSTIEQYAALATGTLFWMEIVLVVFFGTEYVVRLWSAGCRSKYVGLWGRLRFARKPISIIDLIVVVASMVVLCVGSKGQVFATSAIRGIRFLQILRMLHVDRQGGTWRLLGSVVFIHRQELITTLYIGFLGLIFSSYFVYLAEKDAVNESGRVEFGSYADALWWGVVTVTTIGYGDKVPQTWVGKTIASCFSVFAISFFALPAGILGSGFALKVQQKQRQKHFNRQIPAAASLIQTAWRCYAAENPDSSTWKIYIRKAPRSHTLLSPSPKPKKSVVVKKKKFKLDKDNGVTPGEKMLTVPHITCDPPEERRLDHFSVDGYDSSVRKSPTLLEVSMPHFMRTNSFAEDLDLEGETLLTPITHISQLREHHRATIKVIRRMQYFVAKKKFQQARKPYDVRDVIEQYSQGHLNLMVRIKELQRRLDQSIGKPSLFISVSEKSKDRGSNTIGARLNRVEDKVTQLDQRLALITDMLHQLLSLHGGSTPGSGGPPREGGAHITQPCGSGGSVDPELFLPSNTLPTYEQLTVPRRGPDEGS
The source made the active and inactive calls.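 Rule for the calls: active = potentiation averaged over duplicate wells exceeding buffer-only control mean by more than 3 SD; inactive = the rest.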
Entry note: the call must match one of active, inactive

O=C(Nc1nnc(-c2ccc3c(c2)CCCC3)o1)c1ccc(Cl)cc1Cl ... active
CC1=NN(C(N)=S)C(=O)C1N=Nc1cccc(Cl)c1C (stereo unspecified) ... active
COCCN(Cc1cc2cc3c(cc2nc1Cl)OCO3)C(=O)c1ccc(C)cc1 ... inactive
C/C(=N\Nc1nc2ccccc2[nH]1)c1ccc(Cl)s1 ... inactive
CCn1c(=S)sc2nc(C)sc21 ... inactive

GET /call?item= Cc1[nH]n(-c2ccccc2)c(=O)c1/C=N/N(c1ccccc1)c1ccccc1 returns the recorded outcome of this test.
active

GET /call?item= O=C(CN(c1ccc(Cl)cc1)S(=O)(=O)c1ccc(Cl)c([N+](=O)[O-])c1)NCCc1ccc(F)cc1 returns the recorded outcome of this test.
inactive

GET /call?item= Cc1cc(C(=O)OCC(=O)NCc2ccco2)c(C)n1-c1ccc(F)cc1 returns the recorded outcome of this test.
active

GET /call?item= O=C(NC1=NCCS1)c1ccc(N2CCCC2=O)cc1 returns the recorded outcome of this test.
active

GET /call?item= CN1CCC(Oc2ccccc2Sc2ccc(C(F)(F)F)cc2)CC1 returns the recorded outcome of this test.
inactive

GET /call?item= COc1cccc(N=Nc2ccc(O)c3ncccc23)c1 returns the recorded outcome of this test.
active

###

test: parental HEK293 membrane potential modulation, confirmation, counter-screen for TRPC6 modulator project, cell-based (AID 488924); details: parental HEK293, membrane potential dye fluorescence; at 10 µM
The list shows a part of the results. Activity calls are given as the source filed them.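 The calls were made as follows: active = membrane potential signal moves up or down beyond 5 SD from buffer-only wells, on both duplicate plates; inactive = the rest.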
Entry note: the call must match one of active, inactive

Cn1c(/C(C#N)=C2/CCCCCN2)nc2ccccc21 ... inactive
COc1cc(CNCCN(C)C)ccc1OCc1c(F)cccc1Cl ... active

GET /call?item= Cc1cccc(-[n+]2c(-c3cccc(Br)c3)[nH]c3nc4ccccc4nc32)c1 returns the recorded outcome of this test.
inactive

GET /call?item= COc1ccc(Cn2c(-c3ccc(Cl)cc3)c[n+]3ccccc23)cc1 returns the recorded outcome of this test.
active

GET /call?item= O=C(NC1C2CC3CC(C2)CC1C3)c1ccc(N2CCNCC2)c([N+](=O)[O-])c1 (stereo unspecified) returns the recorded outcome of this test.
active

GET /call?item= CC(=O)Nc1ccc(NC(=O)CN2CCCC(C)C2)c(Cl)c1 (stereo unspecified) returns the recorded outcome of this test.
inactive

GET /call?item= CCC(C)(C)NC(=O)CN(C(=O)CCC(=O)Nc1nccs1)c1ccc2c(c1)OCO2 returns the recorded outcome of this test.
inactive
